# Assay conditions: in acetonitrile, 313.15 K
Observation type: solubility (mole fraction)
A bare number is all that is needed in reply.

Please fill in: solubility (mole fraction) reported for CC(C)OC(=O)[C@H](C)N[P@](=O)(OC[C@H]1O[C@@H](n2ccc(=O)[nH]c2=O)[C@](C)(F)[C@@H]1O)Oc1ccccc1 = 0.0234

====

# Assay conditions: in water, 318.15 K
Observation type: solubility (mole fraction)
A bare number is all that is needed in reply.

Please fill in: solubility (mole fraction) reported for CC(C)OC(=O)[C@H](C)N[P@](=O)(OC[C@H]1O[C@@H](n2ccc(=O)[nH]c2=O)[C@](C)(F)[C@@H]1O)Oc1ccccc1 = 0.00017

====

# Assay conditions: in ethyl acetate, 278.15 K
Observation type: solubility (mole fraction)
A bare number is all that is needed in reply.

Please fill in: solubility (mole fraction) reported for CC(C)OC(=O)[C@H](C)N[P@](=O)(OC[C@H]1O[C@@H](n2ccc(=O)[nH]c2=O)[C@](C)(F)[C@@H]1O)Oc1ccccc1 = 0.00263

====

# Assay conditions: in ethanol, 318.15 K
Observation type: solubility (mole fraction)
A bare number is all that is needed in reply.

Please fill in: solubility (mole fraction) reported for CC(C)OC(=O)[C@H](C)N[P@](=O)(OC[C@H]1O[C@@H](n2ccc(=O)[nH]c2=O)[C@](C)(F)[C@@H]1O)Oc1ccccc1 = 0.0997

====

# Assay conditions: in acetonitrile, 293.15 K
Observation type: solubility (mole fraction)
A bare number is all that is needed in reply.

Please fill in: solubility (mole fraction) reported for CC(C)OC(=O)[C@H](C)N[P@](=O)(OC[C@H]1O[C@@H](n2ccc(=O)[nH]c2=O)[C@](C)(F)[C@@H]1O)Oc1ccccc1 = 0.0101

====

# Assay conditions: in n-butanol, 303.15 K
Observation type: solubility (mole fraction)
A bare number is all that is needed in reply.

Please fill in: solubility (mole fraction) reported for CC(C)OC(=O)[C@H](C)N[P@](=O)(OC[C@H]1O[C@@H](n2ccc(=O)[nH]c2=O)[C@](C)(F)[C@@H]1O)Oc1ccccc1 = 0.0278

====

# Assay conditions: in n-butanol, 283.15 K
Observation type: solubility (mole fraction)
A bare number is all that is needed in reply.

Please fill in: solubility (mole fraction) reported for CC(C)OC(=O)[C@H](C)N[P@](=O)(OC[C@H]1O[C@@H](n2ccc(=O)[nH]c2=O)[C@](C)(F)[C@@H]1O)Oc1ccccc1 = 0.0116

====

# Assay conditions: in cyclohexane, 283.15 K
Observation type: solubility (mole fraction)

Please fill in: solubility (mole fraction) reported for CC(C)OC(=O)[C@H](C)N[P@](=O)(OC[C@H]1O[C@@H](n2ccc(=O)[nH]c2=O)[C@](C)(F)[C@@H]1O)Oc1ccccc1 = 6.09e-07

====

# Assay conditions: in ethyl acetate, 283.15 K
Observation type: solubility (mole fraction)
A bare number is all that is needed in reply.

Please fill in: solubility (mole fraction) reported for CC(C)OC(=O)[C@H](C)N[P@](=O)(OC[C@H]1O[C@@H](n2ccc(=O)[nH]c2=O)[C@](C)(F)[C@@H]1O)Oc1ccccc1 = 0.00362

====

# Assay conditions: in n-butanol, 298.15 K
Observation type: solubility (mole fraction)
A bare number is all that is needed in reply.

Please fill in: solubility (mole fraction) reported for CC(C)OC(=O)[C@H](C)N[P@](=O)(OC[C@H]1O[C@@H](n2ccc(=O)[nH]c2=O)[C@](C)(F)[C@@H]1O)Oc1ccccc1 = 0.0225
